# Tested on: T. cruzi CA-I/72
# procedureSummary: Secondary screening (dose-response assay)
# Type: cell-based, Trypanosoma cruzi
# assaySetup: intracellular T. cruzi in C2C12 cells, 72 h; listed as verapamil
pEC50: −log10 of the molar value. Counter-ions that a name gives are not always drawn.
assayEndpoint: pEC50

Name the recorded pEC50 for COc1ccc(CCN(C)CCCC(C#N)(c2ccc(OC)c(OC)c2)C(C)C)cc1OC (racemic) [SC-0005695, (±)-Verapamil hydrochloride] .
> 6.00

* * *

Parameter: CC50 at 72 h. Scope: all listed entries.
# procedureSummary: Host cell cytotoxicity
# Format: cell-based
# assaySetup: mouse; C2C12 host cells
Use µM as the unit, but write only the number.

COc1ccc2nc3cc(Cl)ccc3c(Nc3cc(CN4CCCC4)c(O)c(CN4CCCC4)c3)c2n1    3

Which CC50 at 72 h is listed for `COc1ccc2cc1Oc1ccc(cc1)C[C@H]1c3cc(c(OC)cc3CCN1C)Oc1c(OC)c(OC)cc3c1[C@H](C2)N(C)CC3` ?
1.3
